# Tested on: LOC_OS01G39600-cb002;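 also: purified Escherichia coli-expressed rice kinase domain construct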
# Test method notes: thermal shift delta Tm vs DMSO control; higher = stronger stabilization (binding)
# Study conditions: 12.5 µM; protein concentration 2 µM
Outcome label depends on thermal shift delta Tm relative to 0.9 °C: at/above gives 1.0, below gives 0.0.

> print(dat)
                                   compound  category
1  Cc1cn(-c2cc(NC(=O)c3ccc(C)c(Nc4nccc(-c5cccnc5)n4)c3)cc(C(F)(F)F)c2)cn1 [Nilotinib (AMN-107)]       0.0
2  Cc1ccc(Nc2nccc(N(C)c3ccc4c(C)n(C)nc4c3)n2)cc1S(N)(=O)=O       1.0
3  CN1CCN(C2CCN(C(=O)Nc3cc(Oc4ccc(NC(=O)C5(C(=O)Nc6ccc(F)cc6)CC5)c(F)c4)ccn3)CC2)CC1 [Golvatinib (E7050)]       1.0
4     O=C1NC(=O)/C(=C/c2cccc(C(F)(F)F)c2)S1       0.0
5  COc1cc(Nc2ncc3c(n2)-c2ccc(Cl)cc2C(c2c(F)cccc2OC)=NC3)ccc1C(=O)O [Alisertib (MLN8237)]       1.0

In the following, a different compound is considered.
Incoming: Could you tell me if the measured thermal shift delta Tm of CCN(CC)CCCC(C)Nc1nc(C)cc(Nc2ccc3nc(C)cc(N)c3c2)n1 (stereo unspecified) reaches 0.9 °C or more?
Outgoing: 0.0
